biological target: FPR (Homo sapiens, UniProt P21462); construct: expressed in transfected cells; host or cells: RBL-2H3 (rat basophilic leukemia) cells, G418-selected; test: [Ca2+]i increase in FPR-expressing RBL-2H3 cells (fura-2); type: cell-based; details: fura-2 loaded
Sequence (P21462 whole entry): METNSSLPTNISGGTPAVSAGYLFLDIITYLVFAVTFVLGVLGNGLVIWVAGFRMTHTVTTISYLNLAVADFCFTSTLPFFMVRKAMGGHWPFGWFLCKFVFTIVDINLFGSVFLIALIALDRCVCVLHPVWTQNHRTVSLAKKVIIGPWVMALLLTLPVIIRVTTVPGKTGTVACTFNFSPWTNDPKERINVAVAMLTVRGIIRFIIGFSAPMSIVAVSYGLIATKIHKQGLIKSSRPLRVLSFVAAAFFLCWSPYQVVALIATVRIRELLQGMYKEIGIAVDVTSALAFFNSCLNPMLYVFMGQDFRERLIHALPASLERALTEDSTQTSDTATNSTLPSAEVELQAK
Where a SMILES comes first, the peptide text is derived from it. [ ]: non-standard residue; d: D form.
MEASUREMENT_LABEL: EC50 (nM), intracellular calcium increase

COMPOUND	VALUE_OBSERVED
CSCC[C@H](NC(=O)[C@H](CCCNC(=N)N)NC(=O)[C@H](CCCCN)NC(=O)[C@@H](N)Cc1c[nH]c2ccccc12)C(=O)N[C@H](C(=O)N[C@H](CCSC)C(N)=O)C(C)C [WKRMVm-NH2, Trp-Lys-Arg-Met-Val-D-Met-NH2] (H-WKRMV[dM]-NH2; N-terminus assumed)	inactive
CSCC[C@H](NC(=O)[C@H](Cc1ccc(O)cc1)NC(=O)[C@H](CCCCN)NC(=O)[C@@H](N)Cc1c[nH]c2ccccc12)C(=O)NCC(=O)N[C@H](CCSC)C(N)=O [WKYMGm-NH2, Trp-Lys-Tyr-Met-Gly-D-Met-NH2] (H-WKYMG[dM]-NH2; N-terminus assumed)	inactive
